- SYSTEM_UNDER_TEST: mTOR (Homo sapiens)
- Construct: FLAG; made in house
- PROCEDURE_SUMMARY: In Vitro mTOR Kinase Assay (Echo), Test (a)(ii)
- Assay type: biochemical
- ASSAY_CONDITIONS: table of enzyme assay Test (a)(ii); read-out: Test (a)(ii) IC50
Field: label. Allowed values: met (IC50 < 3 nM) or not met (IC50 >= 3 nM).

{"columns": ["MOLECULE", "GROUP"],
 "data": [
  ["C[C@H]1COCCN1c1cc(C2(S(=O)(=O)CCCO)CC2)nc(-c2ccc(NC(=O)NC3CCC3)cc2)n1 [Example 31b]", "not met"],
  ["C[C@H]1COCCN1c1cc(C2(S(=O)(=O)c3cc(F)cc(F)c3)CC2)nc(-c2ccc(NC(=O)Nc3cnn(C)c3)cc2)n1 [Example 19m]", "met"],
  ["CCNC(=O)Nc1ccc(-c2nc(N3CCOC[C@@H]3C)cc(C3(S(=O)(=O)c4ccc(C)cc4)CC3)n2)cc1 [Example 95q]", "met"],
  ["C[C@H]1COCCN1c1cc(C2(S(C)(=O)=O)CC2)nc(-c2ccc(NC(=O)Nc3ncco3)cc2)n1 [Example 36ba]", "met"],
  ["C[C@H]1COCCN1c1cc(C2(S(=O)(=O)c3ccccn3)CC2)nc(-c2ccc(NC(=O)NC(C)(C)CO)cc2)n1 [Example 28j]", "not met"],
  ["C[C@H]1COCCN1c1cc(C2(S(=O)(=O)CCCO)CC2)nc(-c2ccc(NC(=O)Nc3ccccn3)cc2)n1 [Example 31c]", "met"],
  ["Cc1nc(C)c(S(=O)(=O)C2(c3cc(N4CCOC[C@@H]4C)nc(-c4ccc(NC(=O)NCCO)cc4)n3)CC2)s1 [Example 78c]", "not met"],
  ["C[C@H]1COCCN1c1cc(C2(S(=O)(=O)c3ccc(Cl)cc3)CC2)nc(-c2ccc(NC(=O)NCCN(C)C)cc2)n1 [Example 27g]", "not met"],
  ["C[C@H]1COCCN1c1cc(C2(S(=O)(=O)c3ccccn3)CCC2)nc(-c2ccc(NC(=O)NC3CC3)cc2)n1 [Example 36af]", "met"],
  ["C[C@H]1COCCN1c1cc(C2(S(C)(=O)=O)CC2)nc(-c2ccc(NC(=S)NCCO)cc2)n1 [Example 35b]", "met"],
  ["CCCNC(=S)Nc1ccc(-c2nc(N3CCOC[C@@H]3C)cc(C3(S(C)(=O)=O)CC3)n2)cc1 [Example 37n]", "not met"],
  ["C[C@H]1COCCN1c1cc(C2(S(=O)(=O)c3ccc(F)cc3)CC2)nc(-c2cnc(NC(=O)NCCO)nc2)n1 [Example 14g]", "not met"],
  ["C[C@H]1COCCN1c1cc(C2(S(=O)(=O)c3ccccc3)CC2)nc(-c2ccc(NC(=O)NCC(F)F)cc2)n1 [Example 36dx]", "met"],
  ["Cc1csc(S(=O)(=O)C2(c3cc(N4CCOC[C@@H]4C)nc(-c4ccc(NC(=O)Nc5ncns5)cc4)n3)CC2)n1 [Example 36p]", "met"]
]}

====

- SYSTEM_UNDER_TEST: mTOR (Homo sapiens)
- Construct: FLAG; made in house
- PROCEDURE_SUMMARY: In Vitro mTOR Kinase Assay (Echo), Test (a)(ii)
- Assay type: biochemical
- ASSAY_CONDITIONS: table of enzyme assay Test (a)(ii); read-out: Test (a)(ii) IC50

{"columns": ["COMPOUND", "IC50"],
 "data": [
  ["CCCNC(=O)Nc1ccc(-c2nc(N3CCOC[C@@H]3C)cc(C3(S(=O)(=O)c4cc(F)cc(F)c4)CC3)n2)cc1 [Example 19h]", "2.46 nM"],
  ["Cc1nn(C)cc1S(=O)(=O)C1(c2cc(N3CCOC[C@@H]3C)nc(-c3ccc(NC(=O)NCCF)cc3)n2)CC1 [Example 55c]", "18.9 nM"],
  ["CNC(=S)Nc1ccc(-c2nc(N3CCOC[C@@H]3C)cc(C3(S(=O)(=O)C4CC4)CC3)n2)cc1 [Example 37a]", "26 nM"],
  ["C[C@H]1COCCN1c1cc(C2(S(=O)(=O)C3CCOC3)CC2)nc(-c2ccc(NC(=O)NCCO)cc2)n1 (some centres unmarked) [Example 94j]", "6.05 nM"],
  ["C[C@H]1COCCN1c1cc(C2(S(=O)(=O)c3ccc(NCCO)c(F)c3)CC2)nc(-c2ccc(NC(=O)NCCO)cc2)n1 [Example 64n]", "16.1 nM"],
  ["CNC(=O)Nc1ccc(-c2nc(N3CCOCC3)cc(C3(S(=O)(=O)c4nc(C)cs4)CC3)n2)cc1 [Example 42c]", "3.6 nM"],
  ["C[C@H]1COCCN1c1cc(C2(S(=O)(=O)c3ccc(C#N)cc3Cl)CC2)nc(-c2ccc(NC(=O)NCCO)cc2)n1 [Example 85j]", "12.4 nM"],
  ["C[C@H]1COCCN1c1cc(C2(S(=O)(=O)CCCO)CC2)nc(-c2ccc(NC(=O)N(C)C3CC3)cc2)n1 [Example 36ck]", "2620 nM"],
  ["CCNC(=O)Nc1ccc(-c2nc(N3CCOC[C@@H]3C)cc(C3(S(=O)(=O)CCCO)CCC3)n2)cc1 [Example 43j]", "12 nM"],
  ["C[C@H]1COCCN1c1cc(C2(S(=O)(=O)CCCO)CC2)nc(-c2ccc(NC(=O)NC3CCS(=O)(=O)C3)cc2)n1 (some centres unmarked) [Example 36cr]", "43.5 nM"],
  ["O=C(NCCO)Nc1ccc(-c2nc(N3CCOCC3)cc(C3(S(=O)(=O)C4CC4)CCC3)n2)cc1 [Example 13r]", "1.98 nM"],
  ["C[C@H](CO)NC(=O)Nc1ccc(-c2nc(N3CCOC[C@@H]3C)cc(C3(S(=O)(=O)C4CC4)CCC3)n2)cc1 [Example 64y]", "12.5 nM"],
  ["CNC(=O)Nc1ccc(-c2nc(N3[C@@H](C)COC[C@@H]3C)cc(C3(S(=O)(=O)c4ccccc4)CC3)n2)cc1 [Example 93a]", "3.03 nM"],
  ["CCNC(=O)Nc1ccc(-c2nc(N3CCOC[C@@H]3C)cc(C3(S(=O)(=O)c4cn(C)nc4C)CC3)n2)cc1 [Example 55e]", "20.4 nM"]
]}

====

- SYSTEM_UNDER_TEST: mTOR (Homo sapiens, UniProt P42345)
- Construct: FLAG; made in house
- Sequence (P42345 1362-2549): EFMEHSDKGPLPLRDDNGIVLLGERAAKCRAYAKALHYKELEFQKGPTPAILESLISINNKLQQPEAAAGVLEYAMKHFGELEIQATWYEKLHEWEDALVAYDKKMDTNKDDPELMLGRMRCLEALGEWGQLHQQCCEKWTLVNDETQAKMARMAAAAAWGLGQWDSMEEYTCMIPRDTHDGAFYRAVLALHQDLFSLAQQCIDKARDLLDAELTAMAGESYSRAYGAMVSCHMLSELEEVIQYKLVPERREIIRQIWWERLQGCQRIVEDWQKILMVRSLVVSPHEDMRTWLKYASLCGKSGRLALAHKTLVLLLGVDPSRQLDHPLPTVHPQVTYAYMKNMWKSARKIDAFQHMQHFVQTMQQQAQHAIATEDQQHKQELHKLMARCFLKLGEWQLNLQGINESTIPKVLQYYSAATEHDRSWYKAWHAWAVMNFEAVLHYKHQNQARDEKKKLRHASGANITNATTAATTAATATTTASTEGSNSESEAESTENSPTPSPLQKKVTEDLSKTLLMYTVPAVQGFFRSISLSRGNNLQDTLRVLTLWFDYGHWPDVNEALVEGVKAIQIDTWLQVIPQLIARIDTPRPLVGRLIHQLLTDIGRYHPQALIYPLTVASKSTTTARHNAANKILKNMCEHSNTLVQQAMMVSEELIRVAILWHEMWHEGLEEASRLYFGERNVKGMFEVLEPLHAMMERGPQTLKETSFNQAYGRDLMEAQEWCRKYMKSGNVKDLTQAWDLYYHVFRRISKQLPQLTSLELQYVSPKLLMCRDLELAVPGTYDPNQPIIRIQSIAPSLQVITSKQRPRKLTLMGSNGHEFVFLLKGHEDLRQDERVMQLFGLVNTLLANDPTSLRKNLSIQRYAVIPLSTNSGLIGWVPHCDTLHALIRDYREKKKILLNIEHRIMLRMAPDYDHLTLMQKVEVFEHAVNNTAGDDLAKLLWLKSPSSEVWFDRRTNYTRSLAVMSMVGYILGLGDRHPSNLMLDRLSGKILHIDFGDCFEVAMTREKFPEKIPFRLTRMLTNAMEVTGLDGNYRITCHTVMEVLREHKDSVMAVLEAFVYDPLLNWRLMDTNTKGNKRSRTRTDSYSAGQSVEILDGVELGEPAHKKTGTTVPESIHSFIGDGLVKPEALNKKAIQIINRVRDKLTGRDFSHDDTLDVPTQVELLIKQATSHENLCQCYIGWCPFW
- PROCEDURE_SUMMARY: In Vitro mTOR Kinase Assay (Echo), Test (a)(ii)
- Format: biochemical
- ASSAY_CONDITIONS: read-out: mTOR Kinase Assay (Echo)
pIC50: −log10 of the molar value.

{"columns": ["COMPOUND", "pIC50"],
 "data": [
  ["C[C@H]1COCCN1c1cc(C2(S(=O)(=O)c3ccc(F)cc3)CC2)nc(-c2ccc(NC(=O)Nc3ccc(C(F)(F)F)cc3)cc2)n1", 7.76],
  ["C[C@H]1COCCN1c1cc(C2(S(C)(=O)=O)CCCC2)nc(-c2ccc(NC(=O)NC(C)(C)CO)cc2)n1", 8.00],
  ["CS(=O)(=O)C1(c2cc(N3CCOCC3)nc(-c3ccc(NC(=O)NCCCO)cc3)n2)CC1 [Example 12h]", 8.41],
  ["C[C@H]1COCCN1c1cc(C2(S(=O)(=O)c3ccc(F)cc3)CC2)nc(-c2ccc(NC(=O)Nc3cnn(C)c3)cc2)n1", 8.87],
  ["CCCNC(=O)Nc1ccc(-c2nc(N3CCOC[C@@H]3C)cc(C3(S(=O)(=O)c4ccncc4)CC3)n2)cc1", 8.65],
  ["CC(C)(CO)NC(=O)Nc1ccc(-c2nc(N3CCOCC3)cc(C3(S(C)(=O)=O)CCCC3)n2)cc1 [Example 12m]", 8.00],
  ["C[C@H]1COCCN1c1cc(C2(S(C)(=O)=O)CCC2)nc(-c2ccc(NC(=O)Nc3ccc(C(F)(F)F)cc3)cc2)n1", 8.48],
  ["CNC(=O)Nc1ccc(-c2nc(N3CCOC[C@@H]3C)cc(C3(S(C)(=O)=O)CC3)n2)cc1", 8.55],
  ["C[C@H]1COCCN1c1cc(C2(S(=O)(=O)c3ccncc3)CC2)nc(-c2ccc(NC(=O)Nc3cnn(C)c3)cc2)n1", 8.92],
  ["CC(C)(CO)NC(=O)Nc1ccc(-c2nc(N3CCOCC3)cc(C3(S(C)(=O)=O)CC3)n2)cc1 [Example 12e]", 8.34],
  ["C[C@H]1COCCN1c1cc(C2(S(=O)(=O)c3ccncc3)CC2)nc(-c2ccc(NC(=O)NC(C)(C)CO)cc2)n1", 8.23],
  ["C[C@H]1COCCN1c1cc(C2(S(C)(=O)=O)CC2)nc(-c2ccc(NC(=O)NCCO)cc2)n1", 8.68],
  ["C[C@H]1COCCN1c1cc(C2(S(C)(=O)=O)CC2)nc(-c2ccc(NC(=O)NCCN3CCCC3)cc2)n1", 6.64],
  ["C[C@H]1COCCN1c1cc(C2(S(=O)(=O)C3CC3)CC2)nc(-c2ccc(NC(=O)Nc3ccccn3)cc2)n1", 8.41],
  ["Cn1cc(NC(=O)Nc2ccc(-c3nc(N4CCOCC4)cc(C4(S(C)(=O)=O)CC4)n3)cc2)cn1 [Example 12i]", 9.11],
  ["CCNC(=O)Nc1ccc(-c2nc(N3CCOC[C@@H]3C)cc(C3(S(=O)(=O)CC)CC3)n2)cc1 [Example 11b]", 8.48],
  ["C[C@H]1COCCN1c1cc(C2(S(=O)(=O)C3CC3)CC2)nc(-c2ccc(NC(=O)NCC(O)C(F)(F)F)cc2)n1 (stereo partly shown)", 8.08],
  ["C[C@H]1COCCN1c1cc(C2(S(=O)(=O)c3ccncc3)CC2)nc(-c2ccc(NC(=O)NCCO)cc2)n1", 9.10],
  ["CC(C)CNC(=O)Nc1ccc(-c2nc(N3CCOC[C@@H]3C)cc(C3(S(C)(=O)=O)CCCC3)n2)cc1", 7.94],
  ["CC(C)S(=O)(=O)C1(c2cc(N3CCOC[C@@H]3C)nc(-c3ccc(NC(=O)NC4CCC4)cc3)n2)CC1", 8.19],
  ["CCS(=O)(=O)C1(c2cc(N3CCOC[C@@H]3C)nc(-c3ccc(NC(=O)NCCN(C)C)cc3)n2)CC1 [Example 11g]", 6.50],
  ["C[C@H]1COCCN1c1cc(C2(S(C)(=O)=O)CCC2)nc(-c2ccc(NC(=O)NCCN(C)C)cc2)n1", 7.18],
  ["CCS(=O)(=O)C1(c2cc(N3CCOC[C@@H]3C)nc(-c3ccc(NC(=O)NC4CCC4)cc3)n2)CC1 [Example 11d]", 8.19],
  ["C[C@H]1COCCN1c1cc(C2(S(=O)(=O)C3CC3)CC2)nc(-c2ccc(NC(=O)NCCC#N)cc2)n1", 8.22],
  ["C[C@H]1COCCN1c1cc(C2(S(C)(=O)=O)CCCC2)nc(-c2ccc(NC(=O)Nc3ccc(C(F)(F)F)cc3)cc2)n1", 8.04],
  ["C[C@H]1COCCN1c1cc(C2(S(C)(=O)=O)CCC2)nc(-c2ccc(NC(=O)NC(C)(C)CO)cc2)n1", 8.13],
  ["C[C@H]1COCCN1c1cc(C2(S(C)(=O)=O)CCCC2)nc(-c2ccc(NC(=O)Nc3cnn(C)c3)cc2)n1", 8.61],
  ["C[C@H]1COCCN1c1cc(C2(S(=O)(=O)C3CC3)CC2)nc(-c2ccc(NC(=O)NC3CCC3)cc2)n1", 8.35]
]}
